System: Mycobacterium tuberculosis
EXPERIMENT_DESCRIPTION: Cornell - Phenotypic assay to identify agents that inhibit growth of Mycobacterium tuberculosis
Assay type: functional
Set-up: scale not given: direction of the effect not stated beside the values
MEASUREMENT_CONTEXT: 10 mM as filed; unlikely as a test dose
The campaign covered roughly 53,000 compounds. About 900 (1.7%) showed an effect of 50% or more. This is one part of a sample in which strong results are shown more often than they occur.
Catalogue of molecules with associated Percent Effect
Numeric answer only, unit % assumed.

The following molecules have reported results that may help.
[[record]]
molecule = "CC(CNC(=O)Nc1ccc(F)cc1-n1cccc1)N1CCOCC1 (stereo not drawn)"
value_measured = 31.56

[[record]]
molecule = "Cc1nc2c(c(NCc3cc4ccccc4s3)n1)CCNCC2"
value_measured = 31.59

[[record]]
molecule = "Cc1ccc(CN2Cc3c(C(=O)N4CCOCC4)nn(C)c3C2)s1.O=C(O)C(F)(F)F"
value_measured = 15.84

[[record]]
molecule = "O=C(O)C(F)(F)F.O=C1[C@H]2CN(c3ncccn3)C[C@H]2CN1CCN1CCCC1"
value_measured = 1.191

[[record]]
molecule = "Cn1cc(Br)c(C(=O)NCCn2cc(Br)cn2)n1"
value_measured = 8.473


Tell me the measured Percent Effect of `CCOc1cc(C)c(-c2cc(N)[nH]n2)cc1OCC` , please.
10.44

Tell me the measured Percent Effect of `COc1cc(CNCc2c(C)nn(C)c2N(C)C)ccn1` , please.
97.38

Tell me the measured Percent Effect of `CSc1ccc(C)c(C(=O)Nc2c(C(N)=O)n[nH]c2C)c1` , please.
-17.81

Tell me the measured Percent Effect of `C=C/C=c1\c(=C/C)oc2c(NCc3ccccc3)nc(CC)nc12` , please.
44.26

Tell me the measured Percent Effect of CN(C)S(=O)(=O)NC1CC(=O)N(c2ccccc2Cl)C1 (stereo not drawn) , please.
14.57

Tell me the measured Percent Effect of `CN1CCN(C(=O)c2cc(-c3ccco3)cs2)CC1` , please.
25.84

---

System: Mycobacterium tuberculosis
EXPERIMENT_DESCRIPTION: Cornell - Phenotypic assay to identify agents that inhibit growth of Mycobacterium tuberculosis
Format: functional
Set-up: scale not given: direction of the effect not stated beside the values
MEASUREMENT_CONTEXT: 10 mM as filed; unlikely as a test dose
Among all 53,000 compounds or so, about 900 (1.7%) showed an effect of 50% or more. This is one part of a sample in which strong results are shown more often than they occur.
Please assign Not satisfied whenever Percent Effect is at or above 10%, and Satisfied whenever it is below.

As a guide, the following entries are already answered.
[[record]]
compound = "NC(=O)NC(=O)CCN(Cc1ccccc1)CC1CCOCC1"
class_name = "Not satisfied"

[[record]]
compound = "CCCc1nnnn1CC(=O)NCc1cccc(C)c1"
class_name = "Not satisfied"

[[record]]
compound = "O=C(CN(Cc1ccccc1)CC1CCOCC1)NC(=O)NC1CC1"
class_name = "Not satisfied"

[[record]]
compound = "CCOCc1cnc2n1CCN(C(=O)c1ccccc1)C2C (stereo unspecified)"
class_name = "Satisfied"

[[record]]
compound = "CC1Cn2c(nc3c2c(=O)[nH]c(=O)n3C)O1 (stereo unspecified)"
class_name = "Satisfied"


Now consider the entry below.
Problem: For the compound `O=C(CN(Cc1ccccc1)CC1CCOCC1)Nc1nccs1` , is Percent Effect under 10%?
Not satisfied

---

Catalogue of compounds with associated Percent Effect
Tested on: Mycobacterium tuberculosis
EXPERIMENT_DESCRIPTION: Cornell - Phenotypic assay to identify agents that inhibit growth of Mycobacterium tuberculosis
Assay type: functional
Design: scale not given: direction of the effect not stated beside the values
MEASUREMENT_CONTEXT: 10 mM as filed; unlikely as a test dose
Among all 53,000 compounds or so, about 900 (1.7%) showed an effect of 50% or more. The full list was thinned out, with strong results kept by preference.
Numeric answer only, unit % assumed.

The following compounds have reported results that may help.
[[record]]
compound = "CC(c1nnc(-c2ccccc2)o1)N1CCc2cncnc2C1 (stereo not given)"
measured_quantity = "Percent Effect"
value_measured = -7.255

[[record]]
compound = "Cc1nc(C)n(CC2CN(CC(=O)NC3CCCC3)CCO2)n1 (stereo not given)"
measured_quantity = "Percent Effect"
value_measured = -1.047

[[record]]
compound = "O=C(Cc1ccn[nH]1)Nc1cncc(Br)c1O"
measured_quantity = "Percent Effect"
value_measured = 104.6

[[record]]
compound = "COC(=O)c1cc(C(=O)N2CCc3ccc(F)cc3C2C)ccn1 (stereo not given)"
measured_quantity = "Percent Effect"
value_measured = 5.538

[[record]]
compound = "COCCOc1ccc(NCc2cccc3cn[nH]c23)cn1"
measured_quantity = "Percent Effect"
value_measured = 0.8667

[[record]]
compound = "CN(C)Cc1cc(C2CCCCN2S(=O)(=O)c2cccc(Cl)c2)nn1C.Cl (stereo not given)"
measured_quantity = "Percent Effect"
value_measured = 9.135

[[record]]
compound = "CC1c2ccc(F)cc2CCN1C(=O)c1nc(=O)[nH][nH]1 (stereo not given)"
measured_quantity = "Percent Effect"
value_measured = 10.03

[[record]]
compound = "CCNC(=O)c1cc2n(n1)CCCO2"
measured_quantity = "Percent Effect"
value_measured = -8.867


Give Mycobacterium tuberculosis Percent Effect for O=C(Nc1ccccc1OC1CCOC1)c1ccon1 (stereo not given)
-36.9

Give Mycobacterium tuberculosis Percent Effect for CN(C)c1ncc(C2Nc3cc(Cl)ccc3C3=NCCCN32)cn1.Cl (stereo not given)
8.449

Give Mycobacterium tuberculosis Percent Effect for `CN1C(=O)CCc2cc(NS(=O)(=O)Cc3cccc(F)c3)ccc21`
1.464

Give Mycobacterium tuberculosis Percent Effect for Cc1ccc(NCc2cccc3cn[nH]c23)cc1OC1CCOC1 (stereo not given)
50.19

Give Mycobacterium tuberculosis Percent Effect for CC1c2cccn2CCN1C(=O)CCCc1nc(-c2ccco2)no1 (stereo not given)
8.285

Give Mycobacterium tuberculosis Percent Effect for `COc1cc(N2C[C@@H]3COC[C@]3(COc3cccnc3)C2)ncn1.O=C(O)C(F)(F)F.O=C(O)C(F)(F)F`
-11.05

Give Mycobacterium tuberculosis Percent Effect for CC1c2cccn2CCN1C(=O)CCc1nc(C2CC2)no1 (stereo not given)
7.661

Give Mycobacterium tuberculosis Percent Effect for `CC(C)CN1Cc2cccc(NC(=O)Cc3ccon3)c2C1`
8.389

Give Mycobacterium tuberculosis Percent Effect for `COc1c(Br)cccc1CCNC(=O)c1ccon1`
37.39

Give Mycobacterium tuberculosis Percent Effect for `COCc1nc(CNc2cc(C)nc(N3CCCCC3)n2)no1`
-11.46

Give Mycobacterium tuberculosis Percent Effect for Cc1nc(C)c(C(=O)N2CCc3ccc(F)cc3C2C)o1 (stereo not given)
37.91

Give Mycobacterium tuberculosis Percent Effect for `CCc1ccccc1NC(=O)NCc1nnc(SC)n1C`
-6.778

Give Mycobacterium tuberculosis Percent Effect for `CCOc1cccc(CCNC(=O)Cc2ccn[nH]2)n1`
-3.182

Give Mycobacterium tuberculosis Percent Effect for `Cn1cc(NC(=O)N2CCC(CN3CCCC3)CC2)ccc1=O`
1.194

---

Tested on: Mycobacterium tuberculosis
EXPERIMENT_DESCRIPTION: Cornell - Phenotypic assay to identify agents that inhibit growth of Mycobacterium tuberculosis
Assay type: functional
Design: scale not given: direction of the effect not stated beside the values
MEASUREMENT_CONTEXT: 10 mM as filed; unlikely as a test dose
The campaign covered roughly 53,000 compounds. About 900 (1.7%) showed an effect of 50% or more. What follows is part of a selection rich in strong results, with near analogues and random picks from the rest.
Decide using Percent Effect: a value greater than or equal to 10% is 1 (yes), a smaller one is 0 (no).

As a guide, the following entries are already answered.
[[record]]
compound = "CC(=O)N1CCC(CCc2ccnc(NC(=O)c3ccccn3)c2)CC1"
class_name = "0 (no)"

[[record]]
compound = "CCc1cnc(NC(=O)NC2CCN(C3CCCC3)CC2)s1"
class_name = "0 (no)"

[[record]]
compound = "CC(C)NC(=O)Nc1ccc2c(c1)ncn2CC(=O)NCCN(C)C"
class_name = "0 (no)"

[[record]]
compound = "CCOc1cc(C(=O)N2CCCC(c3noc(C)n3)C2)ccc1OC (stereo unspecified)"
class_name = "1 (yes)"

[[record]]
compound = "CCN1CCn2c(C)cnc2C12CCN(C(=O)c1cscn1)CC2.O=C(O)C(F)(F)F.O=C(O)C(F)(F)F"
class_name = "0 (no)"


Test whether the compound `CC[C@H](C)Nc1nccc(-c2cnc3sccn3c2=O)n1` records Percent Effect of 10% or higher.
0 (no)

Test whether the compound `O=C(CCn1ccc2ccc(Cl)cc21)NCc1ccc(C(=O)O)cc1` records Percent Effect of 10% or higher.
1 (yes)

Test whether the compound `Cn1cc(-c2c(C#N)c(N)nc3c2CCc2[nH]ccc2-3)cc1C#N` records Percent Effect of 10% or higher.
0 (no)

Test whether the compound `Cn1cc(-c2c(C#N)c(N)nc3c2CCc2[nH]ccc2-3)cn1` records Percent Effect of 10% or higher.
1 (yes)

Test whether the compound CN1CC(=O)N(c2ccsc2)CC12CCN(S(=O)(=O)c1ccccc1)C2.O=C(O)C(F)(F)F (stereo unspecified) records Percent Effect of 10% or higher.
0 (no)

Test whether the compound `COc1ccc(NC(=O)N2CCC(c3noc(C)n3)CC2)cc1C` records Percent Effect of 10% or higher.
1 (yes)

Where do these numbers come from? They come from ChEMBL document CHEMBL3988442.
